# key: entry, value: TGI
- System: MALME-3M melanoma
- assay.info: NCI tumour cell line growth inhibition, 48 h

Please give measured TGI of the following entry: CCCCC(SC(=S)N1CCCC1)C(=O)Nc1nc(CC(=O)OCC)cs1 (stereo not given)
> 100 µM

Input C/C(=C\c1ccn(-c2ccccc2N)n1)[C@@H]1C[C@@H]2O[C@]2(C)CCC[C@H](C)[C@H](O)[C@@H](C)C(=O)C(C)(C)[C@@H](O)CC(=O)O1 , output reported TGI.
> 50 µM

Report TGI, nothing else, for this compound: C=CO/N=[N+](\[O-])N(CC)CC
> 100 µM

Given C1=NCCNCCNCCN=Cc2ccc(cc2)OCc2cccc(n2)COc2ccc1cc2 , respond with its TGI.
> 100 µM

Give the measured TGI for Cc1cc(N(CCC#N)S(=O)(=O)c2ccccc2)ccc1/C=C1\N=C(c2ccc(Cl)cc2)OC1=O
> 100 µM
